assayInfo: Half life in ICR mouse at 5 mg/kg, iv measured upto 96 hrs by HPLC-MS/MS analysis
Assay type: ADME, organism-based
testSettings: in vivo
propertyName: half-life (h)
# value in h; strip the unit string

Exam item: half-life for `CN1CCN(c2cc3c(cc2Nc2nnc(-c4ccc(C(F)(F)F)cc4)s2)nc(-c2ccc(F)cc2)n3C2CC2)CC1` ?
Marked response: 9

----------
System: HepG2
assayInfo: Antiproliferative activity against human HepG2 cells assessed as inhibition of cell growth measured after 96 hrs by MTT assay
Format: functional, cell-based
testSettings: HepG2, 96 h
propertyName: IC50 (nM)
A number alone suffices; assume nM.

Exam item: Look at this compound and give its reported IC50. `CN1CCN(c2cc3c(cc2Nc2nnc(-c4ccc(C(F)(F)F)cc4)s2)nc(-c2ccc(F)cc2)n3C2CC2)CC1`
Marked response: 1450
